Assay: Selectivity index, ratio of CC50 for African green monkey Vero cells to EC50 for antiviral activity against Ebola virus infected in African green monkey Vero cells
Assay type: toxicity
Conditions: read-out: Ratio CC50/EC50
Experimental readout: selectivity ratio

# Smiles structure, Result value
measured = [
    ("Nc1ncc(Br)c2c1ncn2[C@@H]1C(F)=C[C@@H](O)[C@H]1O", 381),
    ("Nc1nccc2c1ncn2[C@@H]1C(F)=C[C@@H](O)[C@H]1O", 117),
    ("NC(=O)c1nc(F)cnc1O", 15),
]

----------
Reported selectivity ratio values follow for various compounds
Test: Selectivity index, ratio of EC50 for antiviral activity against Marburgvirus Angola infected in African green monkey Vero cells to CC50 for African green monkey Vero cells
Type: toxicity
Conditions: read-out: Ratio CC50/EC50

# Smiles structure, Reading qualifier, selectivity ratio
data = [
    ("Nc1nccc2c1ncn2[C@@H]1C(F)=C[C@@H](O)[C@H]1O", "=", 27),
    ("NC(=O)c1nc(F)cnc1O", ">", 6.5),
    ("Nc1ncc(Br)c2c1ncn2[C@@H]1C(F)=C[C@@H](O)[C@H]1O", "=", 420),
]
